Overview of reported pKd across a group of binders:
biological target: DLG1_1, Q12959; assay: holdup assay; design: key: below the threshold = too weak to quantify, mostly under pKd 3.1 to 4; conditions: plain residues with an end cap or a label only (N-terminal biotin on a linker: ado-ado)
Form rule: numeric answer, no unit written next to it.

Worked examples follow.
- Binder: "PPGKHLVTEV [KCNA7, Q96RP8]"
  pKd: 4.76
- Binder: "VLYPREGTEV [FOXI1, Q12951]"
  pKd: 4.4
- Binder: "NTANRRTTPV [CACNG2, Q9Y698]"
  pKd: 4.34

State the recorded pKd for this entry: SPDRDRESIV [SCN5A, Q14524]
4.28

State the recorded pKd for this entry: KRPEMTSSSV [MUC3A, MUC3B, Q02505;Q9H195]
1.76

State the recorded pKd for this entry: VKRNSKETVV [MARCHF3, Q86UD3]
5.48

State the recorded pKd for this entry: AAVENKVTDL [PLXNB1, O43157]
3.7

State the recorded pKd for this entry: ILRKSTTTTV [PRR16, Q569H4]
4.76

State the recorded pKd for this entry: MQHQRTHTRV [ZSCAN30, Q86W11]
4.41

State the recorded pKd for this entry: EIPAQSPTCV [FZD10, Q9ULW2]
3.85

State the recorded pKd for this entry: NISYRRESAI [KCNJ4, P48050]
3.54

State the recorded pKd for this entry: TNSRHGETTV [FZD2, Q14332]
4.76

State the recorded pKd for this entry: STKRKLASAV [NCF1, P14598]
3.68

State the recorded pKd for this entry: SVTSERETNI [SLC16A7, O60669]
3.58
